- Tested on: HCC-2998 colon
- ASSAY_NOTES: NCI tumour cell line growth inhibition, 48 h
MEASUREMENT_TYPE: TGI

Sure, the documented TGI for Cc1nc2ccccc2c(/C=C/c2ccc(Cl)cc2)c1C(=O)/C=C/c1ccccc1 is 3.3 µM

// TGI value for Cc1ccc(N=C2C(=Nc3ccc(C)cc3)N(c3ccc(C)cc3)C(=S)N2C(=O)c2ccccc2)cc1 : > 100 µM

Value of TGI reported for the compound O=C(O)C(Oc1nc(=S)[nH]c(=S)[nH]1)(c1ccc(Cl)cc1)c1ccc(Cl)cc1 is > 100 µM

Just so you know, measured TGI for O=[N+]([O-])c1ccc(C=NC23CC4CC(CC(C4)C2)C3)cc1 came out at > 100 µM

Just so you know, measured TGI for CC1(C)C(=O)/C(=C\c2cccnc2)C[C@]2(C)[C@H]3CC[C@@H]4[C@@H](C(=O)/C=C/c5ccncc5)CC[C@@]4(C)[C@]3(C)CC[C@@H]12 came out at 3.84 µM

Lab note: measured TGI of COc1ccc(C[C@H](N)C(=O)N2C[C@@H](CO)C[C@@H](n3ccc(=O)[nH]c3=O)C2)cc1 was > 100 µM

Short answer for Cn1cc(C2=C(N3CCOCC3)C(=O)NC2=O)c2ccccc21 : TGI was > 25 µM

Consider C=C1C(=O)OC2CC3(C)OC3CC/C(C)=C/C(OC(C)=O)C12 (configuration not stated) . Its measured TGI is 31.6 µM

Field TGI (entry Cc1ccc([N+](=O)[O-])c2c(NCC(O)CO)ccnc12 (configuration not stated) ) reads > 100 µM

The recorded TGI for CSc1scc2c1/C(=N/NC(N)=O)CCC2 is > 100 µM

For this compound ( CCCC(=O)[O-].N.N.N.N.N.[Co+3].[O-][Cl+3]([O-])([O-])[O-] ), measured TGI is > 100 µM

Entry under test: Cc1cc(I)cc(CN(C)CCCN2CCN(C)CC2)c1O . Its TGI was 56.8 µM
